pKd: −log10 of the molar value.
Observed pKd values for Cbl-b (residues 36-427) (Homo sapiens, UniProt Q13191) are listed in what follows.
metric: pKd

| compound | metric | result |
| --- | --- | --- |
| C[C@H](Sc1nncn1C)c1cccc(NC(=O)c2ccc3c(OCC(=O)O)cccc3n2)c1 [Compound 309] | pKd | 5.00 to 5.52 |
| C[C@H](Cc1nncn1C)c1cccc(NC(=O)c2ccc(CO)c(C3CC3)n2)c1 [Compound 203] | pKd | > 7.00 |
| CC1CCc2c1n[nH]c2C(=O)Nc1cccc([C@H](C)Cc2nncn2C)c1 (stereo partly shown) [Compound 323] | pKd | 6.52 to 7.00 |
| C[C@H](Sc1nncn1C)c1ccnc(NC(=O)c2cccc(C(C)(F)F)n2)c1 [Compound 110] | pKd | 5.00 to 5.52 |
| COc1cc(C(F)(F)F)cc(C(=O)Nc2cccc([C@H](C)Sc3nncn3C)c2)n1 [Compound 73] | pKd | 5.00 to 5.52 |
| CC(Cc1nccn1C)c1cccc(NC(=O)c2cc(C(=O)N3CC[C@H](O)C3)ccn2)c1 (stereo partly shown) [Compound 252] | pKd | 5.52 to 6.00 |
| C[C@H](Cc1nncn1C)c1cccc(N2Cc3c(cc([C@@H](C)N4CC[C@H](F)C4)cc3C(F)(F)F)C2=O)c1 [Compound 403] | pKd | > 7.00 |
| Cc1ccc(C(=O)Nc2cccc(C(C)C(F)(F)c3nncn3C)c2)nc1C1CC1 (stereo not shown) [Compound 286] | pKd | 6.00 to 6.52 |
| C[C@H](Cc1nncn1C)c1cccc(N2Cc3c(cc(-n4cccn4)cc3C(F)(F)F)C2=O)c1 [Compound 384] | pKd | > 7.00 |
| CO[C@@H]1CCN(C(=O)c2ccnc(C(=O)Nc3cccc([C@H](C)Sc4nncn4C)c3)c2)C1 [Compound 141] | pKd | 5.00 to 5.52 |
| CNc1cc(C(C)Sc2nncn2C)cc(N2Cc3c(cccc3C(F)(F)F)C2=O)n1 (stereo not shown) [Compound 180] | pKd | 5.52 to 6.00 |
| C[C@H](Sc1nncn1C)c1ccnc(NC(=O)c2cccc(S(F)(F)(F)(F)F)c2)c1 [Compound 116] | pKd | 5.00 to 5.52 |
| C[C@H](Sc1nncn1C)c1cccc(NC(=O)c2cc3ccc(OCC(=O)O)cc3cn2)c1 [Compound 308] | pKd | 5.00 to 5.52 |
| C[C@H](Sc1nncn1C)c1cccc(NC(=O)c2cc(C(=O)N3CCC3)ccn2)c1 [Compound 143] | pKd | 5.00 to 5.52 |
| C[C@H](Cc1nncn1C)c1cccc(NC(=O)c2cc(C(=O)N3CC[C@](C)(N)C3)ccn2)c1 [Compound 229] | pKd | 5.52 to 6.00 |
| CCC(Sc1nncn1C)c1cccc(NC(=O)c2cc3ccccc3cn2)c1 (stereo not shown) [Compound 137] | pKd | 5.00 to 5.52 |
